Molecular target: JAK1-JH2 domain (Homo sapiens, UniProt P23458)
Construct: IC50 on JH2 domain activity (nM)
Sequence (P23458 583-855 limits assumed): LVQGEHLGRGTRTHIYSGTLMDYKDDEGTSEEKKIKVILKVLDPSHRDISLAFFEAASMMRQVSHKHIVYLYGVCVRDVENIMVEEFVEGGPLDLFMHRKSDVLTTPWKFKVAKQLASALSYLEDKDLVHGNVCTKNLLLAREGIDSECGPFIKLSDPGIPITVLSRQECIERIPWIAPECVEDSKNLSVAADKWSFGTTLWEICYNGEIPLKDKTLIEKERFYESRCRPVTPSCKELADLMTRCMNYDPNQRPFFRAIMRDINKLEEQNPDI
Experiment: Binding activity test for JH2 domain of JAK1 (Tb-antibody/tracer FRET)
PROPERTY: IC50 (nM)

| MOLECULE | UNIT_STRING | IC50 |
| --- | --- | --- |
| [2H]C([2H])([2H])NC(=O)c1cnc(NC(=O)C2CC2)cc1Nc1ccn2ncc(CC#N)c2c1OC [Example 239] | nM | 5.41 |

I: [2H]C([2H])([2H])NC(=O)c1cnc(NC(=O)C2CC2)cc1Nc1ccc2cnn(CC(F)(F)F)c2c1OC [Example 129]
II: CCn1ccc2c(c(Nc3cc(NC(=O)C4CC4)ncc3C(=O)NC)cn2C2CC2)c1=O [Example 245]
III: [2H]C([2H])([2H])NC(=O)c1cnc(NC(=O)C2CC(C)C2)cc1Nc1ccc2cnn(CC)c2c1OC (stereo not shown) [Example 236]
Prompt line: Rank items: key IC50, increasing. In your reply, arrange the labels in the requested order.
Response line: II, I, III
(II: 4.34 nM, I: 20.8 nM, III: 43.8 nM)
